Tested on: NCI-H460 lung
Test: NCI-60 one-dose screen, 48 h (100 = growth as untreated, 0 = no growth, -100 = all killed)
Settings: 10 µM unless noted
About 83,000 compounds went through this panel and 20% of them were active in at least one assay; those are over-represented in the sample as a whole.
measuredAttribute: growth (%)
Express the result in % but write the number alone.

Output measured growth for this item: "O[C@H](CN1CC1)[C@@H](O)CN1CC1"
15.5

Output measured growth for this item: C[C@]12CC[C@H]3[C@@H](CC4SC(N)=NC45C/C(=N/NC(N)=O)CC[C@]35C)[C@@H]1CCC2=O (stereo partly specified)
-38.7

Output measured growth for this item: "CCOC(=O)[C@@H](C)C[C@H](Cc1ccccc1)NC(=O)c1csc([C@@H](C[C@H](C(C)C)N(C)C(=O)[C@@H](NC(=O)[C@H]2CCCCN2C)C(C)(C)CC)OC(C)=O)n1"
-10.1

Output measured growth for this item: "CN(CCCCN(C)CCOS(C)(=O)=O)CCOS(C)(=O)=O"
35.2

Output measured growth for this item: "CCCc1cc(O)c2c3c(c(=O)oc2c1)CN(C)CC3"
11.9

Output measured growth for this item: "Cc1ccc(C(=O)NCCCOc2ccc(N3C(N)=NC(N)=NC3(C)C)cc2Cl)cc1S(=O)(=O)F"
46.2

Output measured growth for this item: "COC(=O)[C@@H](C)C[C@H](Cc1ccccc1)NC(=O)c1csc([C@@H](C[C@H](C(C)C)N(C)C(=O)[C@@H](NC(=O)CN(C)C)C2CC2)OC(C)=O)n1"
10.3

Output measured growth for this item: "Fc1ccc2c(c1)c(-c1nc(-c3c[nH]c4ncccc34)cs1)cn2CCCCN1CCCCC1"
-80

Output measured growth for this item: "O=[N+]([O-])c1cc(I)cc([N+](=O)[O-])c1"
111

Output measured growth for this item: "CNC(=O)Oc1ccc2c(c1)OCO2"
106

Output measured growth for this item: "ClCCN(CCCl)c1ccc(-n2cnc3c(Cl)ncnc32)cc1"
47.8

Output measured growth for this item: "O=C(NCCN1CC1)C(=O)NCCN1CC1"
58

Output measured growth for this item: "COc1cc2c(cc1OCCCCCn1c(-c3ccco3)nc3ccccc31)N=C[C@@H]1CCCN1C2=O"
4.72

Output measured growth for this item: "Cc1ccc(S(=O)(=O)F)cc1C(=O)O"
111

Output measured growth for this item: CC(=O)OC1CCC2C3CCC4=C/C(=N/OC(=O)c5ccc(N(CCCl)CCCl)cc5)CCC4(C)C3CC(C)C12 (stereo unspecified)
-4.94

Output measured growth for this item: "Fc1ccc(C2=CCNCC2)cc1"
99.5

Output measured growth for this item: "CC(=O)OC[C@]1(C)C=C2C(=O)[C@](C)(O)C3(CC3)C(C)=C2[C@H]1O"
-37.4

Output measured growth for this item: "COC(=O)[C@@H](C)C[C@H](Cc1ccccc1)NC(=O)c1csc([C@@H](C[C@H](C(C)C)N(C)C(=O)[C@@H](NC(=O)[C@H]2CCCCN2C)C(C(F)(F)F)C(F)(F)F)OC(C)=O)n1"
5.59

Output measured growth for this item: "COc1cc([N+](=O)[O-])c2nc(C)ccc2c1[N+](=O)[O-]"
115

Output measured growth for this item: "C[C@]12CCc3sc(NCCc4ccccc4)nc3C1=CC[C@@H]1[C@@H]2CC[C@]2(C)C(=O)CC[C@@H]12"
72.8

Output measured growth for this item: "CC(C)(NC(=O)O[C@@H]1CN2CCC1CC2)c1csc(-c2ccc(F)cc2)n1"
101

---

System: OVCAR-3 ovarian
Assay: NCI-60 one-dose screen, 48 h
Conditions: 10 µM unless noted
About 83,000 compounds went through this panel and 20% of them were active in at least one assay; those are over-represented in the sample as a whole. Calls of active or inactive are those of the source. Rule for the calls: active = growth percent below 10; inactive = the rest.
Your answer must be one of the following: Yes = active, No = inactive

Call for entry CN1CCC(c2c[nH]c3ccccc23)C1 (stereo not given) :
No

Call for entry "C/C(CC(C)(C)N1CC1)=N\NC(=O)Nc1cccc2ccccc12" :
No

Call for entry CC(=O)OC1CCC2C3CCC4=C/C(=N/OC(=O)c5ccc(N(CCCl)CCCl)cc5)CCC4(C)C3CC(C)C12 (stereo not given) :
No

Call for entry "CC(=O)/C=C/c1ccc2c(c1)OCO2" :
No

Call for entry "COC(=O)[C@H](C[C@H](Cc1ccccc1)NC(=O)c1csc([C@@H](C[C@H](C(C)C)N(C)C(=O)[C@@H](NC(=O)[C@H]2CCCCN2C)C(C)C)OC(C)=O)n1)NC(=O)OCc1ccccc1" :
Yes

---

Tested on: SNB-75 CNS
Experiment: NCI-60 one-dose screen, 48 h (100 = growth as untreated, 0 = no growth, -100 = all killed)
Details: 10 µM unless noted
About 83,000 compounds went through this panel and 20% of them were active in at least one assay; those are over-represented in the sample as a whole. Active and inactive are the calls of the source. The calls were made as follows: active = growth percent below 10; inactive = the rest.
I'd appreciate it if you could supply growth values for the items below.

Output measured growth for this item: "CN[C@]1(c2ccccc2Cl)CCCC[C@H]1NCCCN1CCN(C)CC1"
82% (inactive)

Output measured growth for this item: "Cc1sc2c(c1C)C(c1ccc(Cl)cc1)=N[C@@H](CC(=O)OC(C)(C)C)c1nnc(C)n1-2"
18.6% (inactive)

Output measured growth for this item: "O=Cc1cn(Cc2ccc(Cl)cc2)c2ccccc12"
86.7% (inactive)

Output measured growth for this item: CC(CC1CCCCC1)NCc1ccccc1 (configuration not stated)
100% (inactive)

Output measured growth for this item: "CC1=C([Te]c2ccc(O)cc2)C(=O)c2ccccc2C1=O"
-3.63% (active)

Output measured growth for this item: Cc1ccc2c(C(C[N+](=O)[O-])c3cccs3)c(-c3ccccc3)[nH]c2c1 (configuration not stated)
-37.2% (active)

Output measured growth for this item: "C[C@@]1(CCCCCCCCCc2ccc(O)cc2)C[C@]2(C)OC(=O)C[C@@H]2OO1"
95% (inactive)

Output measured growth for this item: "C[C@@]12CC[C@@H](O)C[C@@H]1CC[C@H]1[C@H]2CC[C@@]2(C)[C@H](c3ccc(=O)oc3)CC[C@@]12O"
-85% (active)

Output measured growth for this item: "CC(=O)O[C@H](C[C@H](C(C)C)N(C)C(=O)[C@@H](NC(=O)[C@H]1CCCN1C)C(C)C)c1nc(C(=O)N[C@@H](Cc2ccccc2)C[C@H](C)C(=O)O)c(C)s1"
50.5% (inactive)

Output measured growth for this item: "C#C[C@]1(OC(=O)CCCCCC)CC[C@H]2[C@@H]3CCC4=CC(=O)CC[C@@H]4[C@H]3CC[C@@]21C"
81.5% (inactive)

Output measured growth for this item: "Nc1c(F)cc(-c2nc3cc(F)ccc3[se]2)cc1Br"
73.4% (inactive)

Output measured growth for this item: "CCC[CH2][Sn]([CH2]CCC)([CH2]CCC)[O]c1ccc(Cl)cc1Cl"
-93.6% (active)

Output measured growth for this item: "CC[C@H](C)[C@H](NC(=O)c1cccn1C)C(=O)N(C)[C@H](C[C@@H](OC(C)=O)c1nc(C(=O)N[C@@H](Cc2ccccc2)C[C@H](C)C(=O)OC)cs1)C(C)C"
33.4% (inactive)

Output measured growth for this item: "COC(=O)[C@@]1(O)C[C@H]2O[C@]1(C)n1c3ccccc3c3c4c(c5c6ccccc6n2c5c31)C(=O)NC4"
-97.1% (active)

Output measured growth for this item: "O=C(CCCCCNC1=CC(=O)c2ccccc2C1=O)NCCC[Te]c1ccccc1"
-26% (active)

Output measured growth for this item: "COC(=O)C12CC(NC(=O)c3csc([C@@H](C[C@H](C(C)C)N(C)C(=O)[C@@H](NC(=O)[C@H]4CCCCN4C)C(C)C)OC(C)=O)n3)(C1)C2"
47% (inactive)

Output measured growth for this item: O=C1Nc2ccccc2C2c3cccn3-c3ccccc3CN12 (configuration not stated)
21.1% (inactive)

Output measured growth for this item: "COc1cc(/C=C\c2cc(OC)c(OC)c(OC)c2)cc(NS(=O)(=O)c2cccc(Cl)c2)c1OC"
64.5% (inactive)

Output measured growth for this item: "O=C(c1ccccc1O)c1[nH]c(Cl)c(Cl)c1-n1c(C(=O)c2ccccc2O)cc(Cl)c1Cl"
-1.42% (active)

Output measured growth for this item: "C[n+]1c(/C=C/c2ccc(N(CCCl)CCCl)cc2)sc2ccccc21"
74.5% (inactive)

Output measured growth for this item: "CC1(C)N=C(N)N=C(N)N1c1cccc(CCCCc2ccc(Cl)c(S(=O)(=O)F)c2)c1"
62.2% (inactive)

Output measured growth for this item: COC1OC(CO)C(O)C(O)[CH]1[Hg][O]C(C)=O (configuration not stated)
77.3% (inactive)

Output measured growth for this item: "Cn1cc(-c2csc(-c3cn(CCN4CCOCC4)c4ccc(F)cc34)n2)c2cccnc21"
51.1% (inactive)

Output measured growth for this item: "C=C1C[C@](OC)([C@H](O)C(=O)N[C@@H](OC)[C@@H]2C[C@@H](O)C(C)(C)[C@@H](C[C@@H](COC)OC)O2)O[C@H](C)[C@@H]1C"
-100% (active)

Output measured growth for this item: "CCCOC(=O)N[C@H]1CCc2c(Br)c(OC)c(OC)c(OC)c2-c2ccc(SC)c(=O)cc21"
19.6% (inactive)

Output measured growth for this item: "CCC1(C(C)C)C(=O)NC(=S)NC1=O"
95.5% (inactive)

Output measured growth for this item: CN1CCC(c2c[nH]c3ccccc23)C1 (configuration not stated)
95.5% (inactive)
